// data source = the Human Domainome abundance scans (Beltran et al. 2025)

B1: POU domain, class 6, transcription factor 2, residues 609 to 663; numbered along this chain, P78424 (parent)
chain: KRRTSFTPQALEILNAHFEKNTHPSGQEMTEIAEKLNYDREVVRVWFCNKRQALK

variants of: B1; assay: abundance fitness (aPCA) (normalised: wild type 0, dead -1); higher = more abundant; growth selection in yeast, the domain comes from the species named; details: Homo sapiens
Measured abundance fitness accompanies every entry in the list below.
No unit in the answer, only the number.

[in] abundance fitness for `S5T` ?
[out] 0.12
